Recorded values, source patent US6140353A.

Target: factor VIIa/tissue factor complex (Homo sapiens)
Construct: 9 nM of soluble factor VIIa
Sequence (P08709 213-466 limits assumed): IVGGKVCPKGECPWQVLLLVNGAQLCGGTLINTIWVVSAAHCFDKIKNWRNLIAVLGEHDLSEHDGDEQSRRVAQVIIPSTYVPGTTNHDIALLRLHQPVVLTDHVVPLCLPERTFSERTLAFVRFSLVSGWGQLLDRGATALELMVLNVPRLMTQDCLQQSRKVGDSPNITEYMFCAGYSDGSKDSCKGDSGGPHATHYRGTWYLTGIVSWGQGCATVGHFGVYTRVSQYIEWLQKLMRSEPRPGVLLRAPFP
Sequence (P08709 61-212 partner limits assumed): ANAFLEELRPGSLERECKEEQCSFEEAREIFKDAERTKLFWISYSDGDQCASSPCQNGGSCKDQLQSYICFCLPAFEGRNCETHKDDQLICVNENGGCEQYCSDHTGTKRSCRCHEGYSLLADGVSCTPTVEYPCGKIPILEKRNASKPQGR
Sequence (P13726 33-295 partner): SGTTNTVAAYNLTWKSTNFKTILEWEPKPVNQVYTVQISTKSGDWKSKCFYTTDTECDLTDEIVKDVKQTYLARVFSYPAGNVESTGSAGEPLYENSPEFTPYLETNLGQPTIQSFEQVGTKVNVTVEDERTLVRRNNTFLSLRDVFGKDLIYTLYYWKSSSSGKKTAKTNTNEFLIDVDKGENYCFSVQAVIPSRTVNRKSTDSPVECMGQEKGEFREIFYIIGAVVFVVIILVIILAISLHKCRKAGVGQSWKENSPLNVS
Experiment: Inhibition of the amidolytic activity of the factor VIIa/tissue factor complex (chromogenic peptide substrate)
Details: chromogenic substrate Chromozym-tPA (3.5 mM), pH 7.5, room temperature, 15 minutes incubation, 10 minutes kinetic reading
pKi: −log10 of the molar value. Where a name gives a salt, the structure may show the parent alone.
If the reported pKi equals or exceeds 7, assign true. If not, assign false.

{"molecule": "COc1cc(C(Nc2ccc(C(=N)N)cc2)C(=O)Nc2ccccc2)ccc1OCc1ccccc1 (racemic)", "qualitative-label": "false"}
{"molecule": "COc1cc(C(Nc2ccc(C(=N)N)cc2)C(=O)NCc2ccccc2)ccc1OCCc1ccccc1 (racemic)", "qualitative-label": "false"}
{"molecule": "COc1cc(C(Nc2ccc(C(=N)N)cc2)C(=O)NCc2ccccc2)ccc1OCc1ccc2cnccc2c1 (racemic)", "qualitative-label": "false"}
{"molecule": "COc1ccc(C(Nc2ccc(C(=N)N)cc2)C(=O)NCc2ccccc2)cc1OC (racemic) [Example 2a, hydrochloride]", "qualitative-label": "false"}
{"molecule": "COc1cc(C(Nc2ccc(C(=N)N)cc2)C(=O)NCc2ccccc2)ccc1OCc1ccccc1 (racemic) [Example 1, hydrochloride]", "qualitative-label": "true"}
{"molecule": "COc1cc(C(Nc2ccc(C(=N)N)cc2)C(=O)NCc2ccccc2)cc(OC)c1OC (racemic) [Example 5a, hydrochloride]", "qualitative-label": "false"}
{"molecule": "CCOc1cc(C(Nc2ccc(C(=N)N)cc2)C(=O)NCc2ccccc2)ccc1OCc1ccccc1 (racemic) [Example 5g, hydrochloride]", "qualitative-label": "true"}
{"molecule": "COc1cc(OC)cc(C(Nc2ccc(C(=N)N)cc2)C(=O)NCc2ccccc2)c1 (racemic) [Example 5b, hydrochloride]", "qualitative-label": "false"}
{"molecule": "COc1cccc(COc2ccc(C(Nc3ccc(C(=N)N)cc3)C(=O)NCc3ccccc3)cc2OC)c1 (racemic)", "qualitative-label": "false"}
{"molecule": "COc1cc(C(Nc2ccc(C(=N)N)cc2)C(=O)NCc2ccccc2)ccc1OCc1ccncc1 (stereo not shown) [Example 7a, acetate]", "qualitative-label": "false"}
{"molecule": "COc1cc(C(Nc2ccc(C(=N)N)cc2)C(=O)NCc2ccccc2)ccc1OCc1ccc2c(c1)NCCC2 (racemic)", "qualitative-label": "false"}

###

Ki: recorded values
Target: factor VIIa/tissue factor complex (Homo sapiens)
Construct: 9 nM of soluble factor VIIa
Assay: Inhibition of the amidolytic activity of the factor VIIa/tissue factor complex (chromogenic peptide substrate)
Conditions: chromogenic substrate Chromozym-tPA (3.5 mM), pH 7.5, room temperature, 15 minutes incubation, 10 minutes kinetic reading
Method: The measurements were carried out on microtiter plates at room temperature. […] After an incubation time of 15 minutes, the reaction was started by addition of 50 μl of chromogenic substrate Chromozym-tPA (3.5 mM, MeSO2 -D-Phe-Gly-Arg-paranitroanilide), and the hydrolysis of the substrate was followed spectrophotometrically on a kinetic microtiter plate reader over 10 minutes. […]
Where a name gives a salt, the structure may show the parent alone.
property: Ki (nM)

{"compound": "COc1cc(C(Nc2ccc(C(=N)N)cc2)C(=O)NCc2ccccc2)c(NS(=O)(=O)c2ccccc2)cc1O (centres unmarked) [Example 10, acetate]", "units-of-measure": "nM", "observed-result": 112}
{"compound": "COc1cc(C(Nc2ccc(C(=N)N)cc2)C(=O)NCc2ccccc2)ccc1OCc1ccc2[nH]ccc2c1 (racemic) [Example 7e]", "units-of-measure": "nM", "observed-result": 110}
{"compound": "CCOc1ccc(C(Nc2ccc(C(=N)N)cc2)C(=O)NCc2ccccc2)cc1OCC (racemic) [Example 5d, hydrochloride]", "units-of-measure": "nM", "observed-result": 110}
{"compound": "COc1cc(C(Nc2ccc(C(=N)N)cc2)C(=O)NCc2ccccc2)c(NS(=O)(=O)c2ccccc2)cc1OCc1ccccc1 (centres unmarked) [Example 8, acetate]", "units-of-measure": "nM", "observed-result": 150}
{"compound": "COc1ccc(C(Nc2ccc(C(=N)N)cc2)C(=O)NC(c2ccccc2)c2ccccc2)cc1OC (racemic) [Example 5c, hydrochloride]", "units-of-measure": "nM", "observed-result": 160}
